The following variants are listed with their measured folding stability dG values.
B1: EEHEE_rd3_1049 (parent)
chain: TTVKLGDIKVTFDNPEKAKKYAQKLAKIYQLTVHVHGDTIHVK

variants of: B1; experiment: folding stability dG (cDNA display proteolysis); higher = more stable; conditions: PBS, room temperature
Provide only the numeric value, understood in kcal/mol.

The examples below pair each entry with its known result.
Query: Sample I40R — what was its folding stability dG?
Result: 0.214

Query: May I ask what folding stability dG has been recorded for K17M ?
Result: 2.2

Query: What value of measured folding stability dG is listed for T2G ?
Result: 0.901

Now consider the entry below.
Query: Suppose we examine the variant V33P ; what folding stability dG value has been reported?
Result: 0.242

Hello, the source for this data is the MegaScale stability set (Tsuboyama et al. 2023), in case you need it.
